pIC50: −log10 of the molar value.
The following compounds each carry a recorded pIC50 for His-Tagged hOGA (human O-GlcNAcase) (Homo sapiens (Human), UniProt O60502).

Given the compound CC(c1ccc2scnc2c1)N1CCC2(CC1)C(=O)N(Cc1ccc(S(C)(=O)=O)cc1)C(=O)N2Cc1ccc(S(C)(=O)=O)cc1 (racemic) and test system His-Tagged hOGA (human O-GlcNAcase) (Homo sapiens (Human), UniProt O60502), the measured pIC50 is 6.00 to 6.70

Given the compound CC(c1ccc2scnc2c1)N1CCC2(CC1)NC(=O)N(c1ccc(Cl)cc1)C2=O (racemic) and test system His-Tagged hOGA (human O-GlcNAcase) (Homo sapiens (Human), UniProt O60502), the measured pIC50 is 6.70 to 7.30

Given the compound CC(c1ccc2scnc2c1)N1CCC2(CC1)NC(=O)NC2=O (racemic) and test system His-Tagged hOGA (human O-GlcNAcase) (Homo sapiens (Human), UniProt O60502), the measured pIC50 is 5.00 to 6.00

Given the compound CC(c1ccc2c(c1)OCC2)N1CCC2(CC1)C(=O)N(Cc1ccc(C#N)cc1)C(=O)N2C (racemic) and test system His-Tagged hOGA (human O-GlcNAcase) (Homo sapiens (Human), UniProt O60502), the measured pIC50 is 5.00 to 6.00

Given the compound Cc1cc(CN2C(=O)NC3(CCN(C(C)c4ccc5scnc5c4)CC3)C2=O)cc(C)n1 (racemic) and test system His-Tagged hOGA (human O-GlcNAcase) (Homo sapiens (Human), UniProt O60502), the measured pIC50 is 6.70 to 7.30

***
Given the compound CC(c1ccc2c(c1)OCC2)N1CCC2(CC1)NC(=O)N(Cc1ccc(C(F)(F)F)nc1)C2=O (racemic) and test system His-Tagged hOGA (human O-GlcNAcase) (Homo sapiens (Human), UniProt O60502), the measured pIC50 is 6.70 to 7.30

Given the compound CC(=O)Nc1ncc(CN2CCC3(CC2)NC(=O)N(Cc2ccnc(C)c2)C3=O)s1 (racemic) and test system His-Tagged hOGA (human O-GlcNAcase) (Homo sapiens (Human), UniProt O60502), the measured pIC50 is > 7.30

* * *

# IC50 listing for each entry below
Biological target: His-Tagged hOGA (human O-GlcNAcase) (Homo sapiens (Human), UniProt O60502)
Sequence (O60502 whole entry): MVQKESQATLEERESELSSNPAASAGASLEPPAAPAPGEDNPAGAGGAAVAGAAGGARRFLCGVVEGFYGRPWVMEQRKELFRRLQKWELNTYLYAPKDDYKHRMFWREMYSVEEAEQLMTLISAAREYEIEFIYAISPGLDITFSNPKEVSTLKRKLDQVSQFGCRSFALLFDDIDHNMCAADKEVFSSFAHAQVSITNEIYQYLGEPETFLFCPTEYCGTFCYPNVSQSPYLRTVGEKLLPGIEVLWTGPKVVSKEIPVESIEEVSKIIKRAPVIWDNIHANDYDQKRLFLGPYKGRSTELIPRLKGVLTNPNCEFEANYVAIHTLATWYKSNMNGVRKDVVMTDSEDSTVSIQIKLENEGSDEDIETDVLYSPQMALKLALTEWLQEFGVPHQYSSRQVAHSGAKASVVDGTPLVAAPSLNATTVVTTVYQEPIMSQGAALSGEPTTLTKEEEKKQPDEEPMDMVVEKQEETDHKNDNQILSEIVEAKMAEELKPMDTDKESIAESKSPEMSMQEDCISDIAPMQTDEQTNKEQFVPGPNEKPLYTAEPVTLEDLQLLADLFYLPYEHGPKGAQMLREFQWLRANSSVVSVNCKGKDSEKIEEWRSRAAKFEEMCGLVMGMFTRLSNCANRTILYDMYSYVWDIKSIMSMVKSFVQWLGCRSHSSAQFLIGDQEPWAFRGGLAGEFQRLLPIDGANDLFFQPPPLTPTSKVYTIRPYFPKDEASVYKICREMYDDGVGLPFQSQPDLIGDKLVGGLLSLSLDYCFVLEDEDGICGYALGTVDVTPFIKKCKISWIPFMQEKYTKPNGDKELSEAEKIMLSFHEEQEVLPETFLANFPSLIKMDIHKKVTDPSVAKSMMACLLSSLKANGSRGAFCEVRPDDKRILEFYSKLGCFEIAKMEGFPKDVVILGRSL

Given the compound CC(c1ccc2scnc2c1)N1CCC2(CC1)CN(c1cncnc1)C(=O)N2 (racemic) and test system His-Tagged hOGA (human O-GlcNAcase) (Homo sapiens (Human), UniProt O60502), the measured IC50 is 50 to 200 nM

Given the compound CC(c1ccc2c(c1)OCC2)N1CCC2(CC1)C(=O)N(Cc1ccc(C#N)cc1)C(=O)N2Cc1ccc(C#N)cc1 (racemic) and test system His-Tagged hOGA (human O-GlcNAcase) (Homo sapiens (Human), UniProt O60502), the measured IC50 is 200 to 1000 nM

Given the compound CC(c1ccc2scnc2c1)N1CCC2(CCN(c3ccc(C#N)cc3)C2=O)CC1 (racemic) and test system His-Tagged hOGA (human O-GlcNAcase) (Homo sapiens (Human), UniProt O60502), the measured IC50 is 200 to 1000 nM

Given the compound CC(c1ccc2scnc2c1)N1CCC2(CC1)CN(c1cccnn1)C(=O)N2 (racemic) and test system His-Tagged hOGA (human O-GlcNAcase) (Homo sapiens (Human), UniProt O60502), the measured IC50 is < 50 nM

Given the compound CC(c1ccc2scnc2c1)N1CCC2(CCN(c3ccc(C#N)cc3)C2)CC1 (racemic) and test system His-Tagged hOGA (human O-GlcNAcase) (Homo sapiens (Human), UniProt O60502), the measured IC50 is 200 to 1000 nM

***
Given the compound CC(c1ccc2scnc2c1)N1CCC2(CC1)CCN(S(C)(=O)=O)C2 (racemic) and test system His-Tagged hOGA (human O-GlcNAcase) (Homo sapiens (Human), UniProt O60502), the measured IC50 is 1000 to 10000 nM

Given the compound CC(c1ccc2scnc2c1)N1CCC2(CC1)CC(=O)N(c1ncccn1)C2 (racemic) and test system His-Tagged hOGA (human O-GlcNAcase) (Homo sapiens (Human), UniProt O60502), the measured IC50 is 1000 to 10000 nM

Given the compound CC(=O)Nc1ncc(CN2CCC3(CC2)NC(=O)N(Cc2ccc(C)nc2)C3=O)s1 (racemic) and test system His-Tagged hOGA (human O-GlcNAcase) (Homo sapiens (Human), UniProt O60502), the measured IC50 is 50 to 200 nM

Given the compound CC(c1ccc2scnc2c1)N1CCC2(CC1)C(=O)N(Cc1ccc(C#N)cc1)c1ccccc12 (racemic) and test system His-Tagged hOGA (human O-GlcNAcase) (Homo sapiens (Human), UniProt O60502), the measured IC50 is 200 to 1000 nM

Given the compound CC(=O)Nc1ncc(CN2CCC3(CC2)NC(=O)N(Cc2cc(C)nc(C)c2)C3=O)s1 (racemic) and test system His-Tagged hOGA (human O-GlcNAcase) (Homo sapiens (Human), UniProt O60502), the measured IC50 is < 50 nM

* * *

# pIC50 listing for each entry below
Molecular target: UniProtKB O60502
pIC50: −log10 of the molar value.

Given the compound CC(c1ccc2scnc2c1)N1CCC2(CC1)C(=O)Nc1ccccc12 (racemic) and test system UniProtKB O60502, the measured pIC50 is 6.00 to 6.70

***
Given the compound CC(c1ccc2scnc2c1)N1CCC2(CC1)CN(c1ccc(F)cc1)C(=O)N2 (racemic) and test system UniProtKB O60502, the measured pIC50 is 6.00 to 6.70

Given the compound CC(c1ccc2scnc2c1)N1CCC2(CC1)NC(=O)N(Cc1cncnc1)C2=O (racemic) and test system UniProtKB O60502, the measured pIC50 is 6.70 to 7.30

Given the compound CC(c1ccc2c(c1)OCC2)N1CCC2(CC1)NC(=O)N(c1ccc(C#N)cc1)C2=O (racemic) and test system UniProtKB O60502, the measured pIC50 is > 7.30

Given the compound CC(c1ccc2scnc2c1)N1CCC2(CC1)NC(=O)N(c1ccc(C#N)cc1)C2=O (racemic) and test system UniProtKB O60502, the measured pIC50 is 6.70 to 7.30

Given the compound CC(c1ccc2scnc2c1)N1CCC2(CC1)NC(=O)N(c1ccc(F)cc1)C2=O (racemic) and test system UniProtKB O60502, the measured pIC50 is 6.70 to 7.30

Given the compound CC(=O)Nc1ncc(CN2CCC3(CC2)CC(=O)N(c2ccc(C#N)cc2)C3)s1 (racemic) and test system UniProtKB O60502, the measured pIC50 is 6.00 to 6.70

Given the compound CC(c1ccc2scnc2c1)N1CCC2(CC1)CN(Cc1ccc(C#N)cc1)C(=O)N2 (racemic) and test system UniProtKB O60502, the measured pIC50 is 6.70 to 7.30

* * *

pIC50: −log10 of the molar value.
The following compounds each carry a recorded pIC50 for His-Tagged hOGA (human O-GlcNAcase) (Homo sapiens (Human), UniProt O60502).

Would you please look over these solved cases?
Given the compound CC(c1ccc2scnc2c1)N1CCC2(CC1)CC(=O)N(c1ccc(C#N)cc1)C2 (racemic) [Example 15] and test system His-Tagged hOGA (human O-GlcNAcase) (Homo sapiens (Human), UniProt O60502), the measured pIC50 is 5.00 to 6.00

Given the compound CC(c1ccc2c(c1)OCC2)N1CCC2(CC1)C(=O)Nc1ccccc12 (racemic) [Example 21] and test system His-Tagged hOGA (human O-GlcNAcase) (Homo sapiens (Human), UniProt O60502), the measured pIC50 is 6.00 to 6.70

***
Given the compound Cc1cc(N2CC3(CCN(C(C)c4ccc5c(c4)OCC5)CC3)CC2=O)n2nccc2n1 (racemic) [Example 16] and test system His-Tagged hOGA (human O-GlcNAcase) (Homo sapiens (Human), UniProt O60502), the measured pIC50 is 5.00 to 6.00

Given the compound CC(c1ccc2c(c1)OCC2)N1CCC2(CC1)NC(=O)N(C)C2=O (racemic) [Example 2] and test system His-Tagged hOGA (human O-GlcNAcase) (Homo sapiens (Human), UniProt O60502), the measured pIC50 is 6.00 to 6.70

Given the compound CC(c1ccc2c(c1)OCC2)N1CCC2(CC1)C(=O)N(c1ccc(C#N)cc1)C(=O)N2C (racemic) [Example 76] and test system His-Tagged hOGA (human O-GlcNAcase) (Homo sapiens (Human), UniProt O60502), the measured pIC50 is 5.00 to 6.00

Given the compound CC(c1ccc2scnc2c1)N1CCC2(CC1)C(=O)N(c1ccc(C#N)cc1)c1ccccc12 (racemic) [Example 25] and test system His-Tagged hOGA (human O-GlcNAcase) (Homo sapiens (Human), UniProt O60502), the measured pIC50 is 6.70 to 7.30
